- Tested on: OVCAR-3
- method notes: NCI tumour cell line growth inhibition, 48 h
Active and inactive are the calls of the source. No stated cut-off is given here; in the data, active = GI50 up to about 1.1 µM and inactive = higher.
Outcome (select one): label 1 for active, label 0 for inactive

Query: Recorded test outcome, item COc1cc(C(C)c2cc3c(cc2OCCO)OCO3)cc(OC)c1OC (stereo not given)
Reply: label 1

Query: Recorded test outcome, item "O=C1C[C@@H](C(=O)OCc2ccccc2)NC(=O)C[C@@H](C(=O)OCc2ccccc2)NC(=O)C[C@@H](C(=O)OCc2ccccc2)N1"
Reply: label 0

Query: Recorded test outcome, item "C=CCN1CCN([C@H](c2ccc(C(=O)N(CC)CC)cc2)c2cccc(OC)c2)CC1"
Reply: label 0

Query: Recorded test outcome, item "C(=C/c1nnnn1-c1ccccc1)/Nc1ccccc1"
Reply: label 0

Query: Recorded test outcome, item "c1ccc(C2=NN(c3nc4ccccc4s3)C3(CCCCC3)N2)nc1"
Reply: label 0
